- measured.target: T1, human CD98, endogenously expressed on Molt-4 human acute lymphoblastic leukemia cells (human)
- T1 chain: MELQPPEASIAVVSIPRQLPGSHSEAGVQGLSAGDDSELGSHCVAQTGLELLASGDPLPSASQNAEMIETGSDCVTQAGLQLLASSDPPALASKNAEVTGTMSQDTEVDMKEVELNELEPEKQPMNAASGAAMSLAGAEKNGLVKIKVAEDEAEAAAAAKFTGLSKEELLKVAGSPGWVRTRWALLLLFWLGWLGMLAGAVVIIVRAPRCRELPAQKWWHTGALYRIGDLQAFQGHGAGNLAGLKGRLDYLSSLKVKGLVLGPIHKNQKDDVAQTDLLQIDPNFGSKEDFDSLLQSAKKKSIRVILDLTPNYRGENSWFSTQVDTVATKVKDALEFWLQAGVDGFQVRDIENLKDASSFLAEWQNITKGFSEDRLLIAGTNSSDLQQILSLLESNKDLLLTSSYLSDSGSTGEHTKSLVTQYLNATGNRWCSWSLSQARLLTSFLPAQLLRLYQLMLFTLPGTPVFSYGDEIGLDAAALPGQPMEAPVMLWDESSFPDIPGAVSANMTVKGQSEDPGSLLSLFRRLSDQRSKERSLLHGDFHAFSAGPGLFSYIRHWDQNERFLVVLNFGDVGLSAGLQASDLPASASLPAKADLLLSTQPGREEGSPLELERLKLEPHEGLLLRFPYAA
- measurement.notes: cell-based or functional assay
parameter.measured: % Cell Viability at 50 nM (%)

| binder | parameter.measured | unit.of.measurement | numeric.readout |
| --- | --- | --- | --- |
| CD98 (CL-huAb110)-TV (antibody, human IgG1, kappa, L234A L235A, V domains shown, synthon TV on reduced interchain cysteines (sites not given)) VH: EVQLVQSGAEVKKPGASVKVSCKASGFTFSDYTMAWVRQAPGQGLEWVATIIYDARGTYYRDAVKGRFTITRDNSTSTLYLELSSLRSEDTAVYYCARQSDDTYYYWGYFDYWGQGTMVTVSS VL: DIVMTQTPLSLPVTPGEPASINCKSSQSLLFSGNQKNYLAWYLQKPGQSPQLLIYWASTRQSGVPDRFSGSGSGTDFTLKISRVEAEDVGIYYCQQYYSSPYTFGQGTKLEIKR | % Cell Viability at 50 nM | % | 1 |
| CD98 (CL-huAb110)-AAA (antibody, human IgG1, kappa, L234A L235A, V domains shown, synthon AAA on reduced interchain cysteines (sites not given)) VH: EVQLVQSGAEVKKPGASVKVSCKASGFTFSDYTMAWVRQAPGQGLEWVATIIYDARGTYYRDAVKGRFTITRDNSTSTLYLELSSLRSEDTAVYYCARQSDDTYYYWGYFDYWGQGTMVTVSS VL: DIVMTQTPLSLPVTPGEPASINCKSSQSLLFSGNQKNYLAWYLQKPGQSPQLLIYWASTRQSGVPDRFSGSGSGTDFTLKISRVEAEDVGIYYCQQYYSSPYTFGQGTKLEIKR | % Cell Viability at 50 nM | % | 1.9 |
| CD98 (CL-huAb104)-LB (antibody, human IgG1, kappa, L234A L235A, V domains shown, synthon LB on reduced interchain cysteines (sites not given)) VH: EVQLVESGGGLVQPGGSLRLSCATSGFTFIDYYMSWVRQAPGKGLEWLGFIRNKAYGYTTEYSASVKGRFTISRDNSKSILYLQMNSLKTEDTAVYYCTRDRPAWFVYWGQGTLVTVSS VL: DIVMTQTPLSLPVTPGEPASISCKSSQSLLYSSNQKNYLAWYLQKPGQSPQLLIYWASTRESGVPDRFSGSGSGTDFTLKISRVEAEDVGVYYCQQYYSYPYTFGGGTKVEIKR | % Cell Viability at 50 nM | % | 3.5 |
